meta.source: ChEMBL document CHEMBL5058577

Tested on: Fibroblast
assay text: Multiplex assay against human fibroblast
Assay type: toxicity, cell-based
test parameters: 24 h, 10 µM, compound concentration 10 uM, replicate 2
Lab note - cut at 50% for Population Tubulin-Different-Phenotype (%): yes (1) if strictly below, no (0) if not.

Example entries begin here.
| smiles representation | group label |
| --- | --- |
| N[C@@]1(C(=O)O)CO[C@H]2[C@H](C(=O)O)[C@H]21 | yes (1) |
| CC[C@H]1OC(=O)[C@H](C)[C@@H](O[C@H]2C[C@@](C)(OC)[C@@H](O)[C@H](C)O2)[C@H](C)[C@@H](O[C@@H]2O[C@H](C)C[C@H](N(C)C)[C@H]2O)[C@@]2(C)CC(C)=C(O2)[C@H](C)[C@@H](O)[C@]1(C)O | no (0) |
| N#Cc1c(N)nc(SCc2csc(-c3ccc(Cl)cc3)n2)c(C#N)c1-c1ccc(OCCO)cc1 | no (0) |
| c1cc(OCCCN2CCCCC2)ccc1CN1CCCCC1 | no (0) |
| O=C(NCC(=O)N1CC[C@H](N[C@H]2CC[C@@](O)(c3ccc(-c4ncccn4)cn3)CC2)C1)c1cccc(C(F)(F)F)c1 | no (0) |

Now turn to the next compound.
Exercise: Say whether its Population Tubulin-Different-Phenotype (%) is strictly beneath 50%. Entry: O=C(O)c1cc2ccccc2c(Cc2c(O)c(C(=O)O)cc3ccccc23)c1O
Solution: yes (1)

====

Test system: Fibroblast
assay text: Multiplex assay against human fibroblast
Format: toxicity, cell-based
test parameters: 12 h, 1 µM, compound concentration 1 uM, replicate 2
quantity name: Population Tubulin-Different-Phenotype (%)
Report as a plain number; the unit % is understood.

Worked examples follow.
| compound | result value |
| --- | --- |
| O=S(=O)(c1ccccc1)c1cnc2c(N3CCNCC3)cccc2c1 [INTEPIRDINE] | 61 |
| CCCN1CCC[C@@H]2Cc3n[nH]cc3C[C@H]21.Cl [QUINPIROLE HYDROCHLORIDE] | 50 |
| O=C(O)Cc1ccccc1Nc1c(Cl)cccc1Cl | 49 |

Shifting focus to the compound that follows.
Exercise: Item under review: C[C@H](NC(=O)c1c(C(F)F)nn(C)c1Oc1cccc(C(F)(F)F)c1)c1ccc(C(=O)O)cc1 . Reported Population Tubulin-Different-Phenotype (%)?
Solution: 55

====

Test system: Fibroblast
assay text: Multiplex assay against human fibroblast
Format: toxicity, cell-based
test parameters: 12 h, 1 µM, compound concentration 1 uM, replicate 1
quantity name: Population Tubulin-Different-Phenotype (%)
Report as a plain number; the unit % is understood.

Worked examples follow.
| compound | study system | result value |
| --- | --- | --- |
| O=S(=O)(c1ccccc1)c1cnc2c(N3CCNCC3)cccc2c1 [INTEPIRDINE] | Fibroblast | 26 |
| O=C(O)c1cc2ccccc2c(Cc2c(O)c(C(=O)O)cc3ccccc23)c1O | Fibroblast | 20 |
| CSc1ccccc1N1CCN(CCCCCC(=O)NC2CCCc3ccccc32)CC1.Cl (stereo not drawn) | Fibroblast | 65 |
| O=C(NCC(=O)N1CC[C@H](N[C@H]2CC[C@@](O)(c3ccc(-c4ncccn4)cn3)CC2)C1)c1cccc(C(F)(F)F)c1 | Fibroblast | 28 |
| COc1cc(NC(=O)CCN2CCC(OC(=O)Nc3ccccc3-c3ccccc3)CC2)c(Cl)cc1CNC[C@H](O)c1ccc(O)c2[nH]c(=O)ccc12 | Fibroblast | 42 |

Exercise: Item under review: CN(C)CCCc1cc(C(=O)Nc2ccc(-c3ccncc3)cc2)ccc1O.Cl.Cl . Reported Population Tubulin-Different-Phenotype (%)?
Solution: 22

Exercise: Item under review: CCCN1CCC[C@@H]2Cc3n[nH]cc3C[C@H]21.Cl [QUINPIROLE HYDROCHLORIDE] . Reported Population Tubulin-Different-Phenotype (%)?
Solution: 17

Exercise: Item under review: N#Cc1c(N)nc(SCc2csc(-c3ccc(Cl)cc3)n2)c(C#N)c1-c1ccc(OCCO)cc1 . Reported Population Tubulin-Different-Phenotype (%)?
Solution: 38
